B1: FBF1 (parent)
chain: FGDSPKAEKRQIGDQEGPRPARST

- Variants of: B1
- Protocol Text: protein stability index of a GFP-peptide fusion (GPS, HEK-293T) (PSI 1-6); higher = more stable;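 note: lentivirally expressed fusions sorted by FACS into six bins by GFP to DsRed ratio, PSI derived from sequencing read proportions per bin multiplied by bin number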
- Stated Conditions: c terminus: a fixed tail appended
Assign protein stability index to each entry below.
Give bare numbers.

| Mutation Id | Value Measured |
| --- | --- |
| I12L | 4.78 |
| G13L | 4.17 |
| D14V | 4.72 |
| T24I | 4.45 |
| R19Y | 4.21 |
| I12M | 5.04 |
| P18S | 4.87 |
| A21M | 4.92 |

Hi there! I need protein stability index for each item below, if you can.
1. R19E
2. R19G
3. E8S
4. D3S
5. A7R

5.73
5.13
4.58
4.89
5.15

// data source = the supplement of paper PMC10567573
